For each record, write down the corresponding Trimeric HA Binding: RLU.
biological target: recombinant soluble homotrimeric HA of A/northern shoveler/California/HKWF115/07 (H6) (Influenza A virus A/northern shoveler/California/HKWF115/2007(H6N1)); test: HA microarray, BCC supernatant; settings: remark: other sources report otherwise
Record the result as number plus unit.

// Trimeric HA Binding: RLU lookup, binder = TCN-550 (5096_F06) (antibody, V domains shown) VH: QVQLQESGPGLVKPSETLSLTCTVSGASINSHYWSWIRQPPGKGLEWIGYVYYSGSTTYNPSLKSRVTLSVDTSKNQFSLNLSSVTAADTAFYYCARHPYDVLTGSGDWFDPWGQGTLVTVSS VL: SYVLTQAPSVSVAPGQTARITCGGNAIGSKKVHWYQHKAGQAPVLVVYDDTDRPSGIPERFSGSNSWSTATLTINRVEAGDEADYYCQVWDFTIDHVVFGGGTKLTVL , result: 964 RLU

// Trimeric HA Binding: RLU lookup, binder = TCN-553 (5261_C18) (antibody, V domains shown) VH: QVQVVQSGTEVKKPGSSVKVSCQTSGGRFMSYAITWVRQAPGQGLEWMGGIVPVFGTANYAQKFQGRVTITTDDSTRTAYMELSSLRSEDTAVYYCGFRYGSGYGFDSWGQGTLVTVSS VL: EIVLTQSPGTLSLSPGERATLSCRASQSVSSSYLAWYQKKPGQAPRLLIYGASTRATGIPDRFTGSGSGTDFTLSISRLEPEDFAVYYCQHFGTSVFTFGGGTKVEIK , result: 21700 RLU

Values compiled from patent US20150086555A1.
